# System: KCl depolarized rat aorta
# assay.info: Inhibitory effects on rat aorta contractions induced by KCl (in vitro)
# Type: cell-based, Wistar rats
# test.parameters: rat aorta contractions induced by KCl 80 mM
quantity.measured: in vitro activity, in words

Prompt: Which value of in vitro activity, in words has been reported for CCOC(=O)C1=C(C)NC(C)=C(C(=O)OC)C1c1cc(OC)c(OC)c(OC)c1 (centres unmarked) in the records?
Response: little or no activity

Prompt: Name the recorded in vitro activity, in words for CCOC(=O)C1=C(C)NC(C)=C(C(=O)OC)C1c1cc(OC)c(O)c(OC)c1 (centres unmarked) .
Response: little or no activity

Prompt: Which in vitro activity, in words is listed for CCOC(=O)C1=C(C)NC(C)=C(C(=O)OC)C1c1ccc(OC)c(OC)c1 (centres unmarked) ?
Response: little or no activity

----------
# IC50 per entry
# System: KCl depolarized rat aorta
# assay.info: Inhibitory effects on rat aorta contractions induced by KCl (in vitro)
# Type: cell-based, Wistar rats
# test.parameters: KCl 80 mM depolarized rat aorta; Table 1; read-out: IC × 10^-8
# number only, unit nM dropped from output

Prompt: Given the entry COC(=O)C1=C(C)NC(C)=C(C(=O)OCC(C)C)C1c1cccc2c1OCO2 (centres unmarked) , report its measured IC50.
Response: 12

Prompt: Looking for the measured IC50 of CCOC(=O)C1=C(C)NC(C)=C(C(=O)OC)C1c1cc(OC)cc(OC)c1 (centres unmarked) , can you help?
Response: 92

----------
Overview of recorded IC50 for various compounds
# System: KCl depolarized rat aorta
# assay.info: Inhibitory effects on rat aorta contractions induced by KCl (in vitro)
# Type: cell-based, Wistar rats
# test.parameters: KCl 80 mM depolarized rat aorta; Table 1; read-out: IC × 10^-8
Numeric only. Scale: nM

Prompt: IC50 for CCOC(=O)C1=C(C)NC(C)=C(C(=O)OC)C1c1cccc2c1OCCO2 (stereo not shown) ?
Response: 45

New cases:
Prompt: Bench note: what IC50 did COCCOC(=O)C1=C(C)NC(C)=C(C(=O)OC(C)C)C1c1cccc2c1OCO2 (stereo not shown) show?
Response: 91

----------
# Test system: SHR rats
# assay.info: Antihypertensive efficacy in SHR rats (systolic blood pressure, tail cuff)
# Format: in vivo, spontaneously hypertensive rats (SHR)
# test.parameters: 8 mg./kg. p.os, n = 5
Measured maximum decrease of blood pressure, mm Hg values are reported for all entries that follow.
Answer format: numeric, mm Hg implied, no suffix.

Answered examples (3):
Prompt: Requested field: maximum decrease of blood pressure, mm Hg. Item: CCOC(=O)C1=C(C)NC(C)=C(C(=O)OC)C1c1ccccc1OCOC (stereo not shown)
Response: 34

Prompt: Entry CCOC(=O)C1=C(C)NC(C)=C(C(=O)OC)C1c1cccc2c1OCO2 (stereo not shown) has what maximum decrease of blood pressure, mm Hg?
Response: 65

Prompt: Look up maximum decrease of blood pressure, mm Hg: COC(=O)C1=C(C)NC(C)=C(C(=O)OCC(C)C)C1c1cccc2c1OCO2 (stereo not shown)
Response: 48

Kindly consider the entry below.
Prompt: Which maximum decrease of blood pressure, mm Hg reading was recorded for the compound CCOC(=O)C1=C(C)NC(C)=C(C(=O)OC)C1c1cccc([N+](=O)[O-])c1 (stereo not shown) [nitrendipine, reference compound] ?
Response: 54

----------
# System: SHR rats
# assay.info: Antihypertensive efficacy in SHR rats (systolic blood pressure, tail cuff)
# Type: in vivo, spontaneously hypertensive rats (SHR)
# test.parameters: SHR rats, p.os
quantity.measured: in vivo antihypertensive activity, in words

Prompt: For the compound CCOC(=O)C1=C(C)NC(C)=C(C(=O)OC(C)C)C1c1cccc2c1OCO2 (centres unmarked) [Compound 15] , what in vivo antihypertensive activity, in words is on record?
Response: also active in vivo

Prompt: # query: in vivo antihypertensive activity, in words of entry COC(=O)C1=C(C)NC(C)=C(C(=O)OCC(C)C)C1c1cccc2c1OCO2 (centres unmarked) [Compound 10]
Response: also active in vivo

Prompt: Return reported in vivo antihypertensive activity, in words; argument: CCOC(=O)C1=C(C)NC(C)=C(C(=O)OC)C1c1ccccc1OCOC (centres unmarked) [Compound 6]
Response: also active in vivo

----------
# Tested on: SHR rats
# assay.info: Antihypertensive efficacy in SHR rats (systolic blood pressure, tail cuff)
# Type: in vivo, spontaneously hypertensive rats (SHR)
# test.parameters: 8 mg./kg. p.os, n = 5
quantity.measured: maximum decrease of blood pressure, mm Hg (mm Hg)
Form entry: value (mm Hg) — number only.

Prompt: Quick check: maximum decrease of blood pressure, mm Hg on SHR rats, item CCOC(=O)C1=C(C)NC(C)=C(C(=O)OC)C1c1cc(OC)c(OC)c(OC)c1 (stereo not shown) ?
Response: 9.8

Further cases:
Prompt: What reported maximum decrease of blood pressure, mm Hg corresponds to CCOC(=O)C1=C(C)NC(C)=C(C(=O)OC(C)C)C1c1cccc2c1OCO2 (stereo not shown) on SHR rats?
Response: 62

Prompt: Request body: readout maximum decrease of blood pressure, mm Hg, system SHR rats, query CCOC(=O)C1=C(C)NC(C)=C(C(=O)OC)C1c1cccc2c1OCCO2 (stereo not shown) . Return the value.
Response: 12

Prompt: Give maximum decrease of blood pressure, mm Hg (SHR rats) of the following compound: COC(=O)C1=C(C)NC(C)=C(C(=O)OC(C)C)C1c1cccc2c1OCO2 (stereo not shown)
Response: 10

----------
The reader will find reported IC50 values listed item by item below.
# Test system: KCl depolarized rat aorta
# assay.info: Inhibitory effects on rat aorta contractions induced by KCl (in vitro)
# Assay type: cell-based, Wistar rats
# test.parameters: KCl 80 mM depolarized rat aorta; Table 1; read-out: IC × 10^-8

Use these answered entries as a reference point.
Prompt: If you can, please state the reported IC50 value of COC(=O)C1=C(C)NC(C)=C(C(=O)OC)C1c1cccc2c1OCO2 [Compound 9] .
Response: 83 nM

Prompt: So what does the record say about IC50 for CCOC(=O)C1=C(C)NC(C)=C(C(=O)OC(C)C)C1c1cccc2c1OCO2 (stereo not drawn) [Compound 15] ?
Response: 2.1 nM

Prompt: I would be grateful if you could share the reported IC50 for COC(=O)C1=C(C)NC(C)=C(C(=O)OC(C)C)C1c1cccc2c1OCO2 (stereo not drawn) [Compound 13] .
Response: 34 nM

Next:
Prompt: Which IC50 is reported for this compound? CCOC(=O)C1=C(C)NC(C)=C(C(=O)OCC)C1c1cccc2c1OCO2 [Compound 14]
Response: > 100 nM

Prompt: Look up IC50: CC1=C(C(=O)OC(C)C)C(c2cccc3c2OCO3)C(C(=O)OC(C)C)=C(C)N1 [Compound 12]
Response: > 100 nM

Prompt: Entry CCOC(=O)C1=C(C)NC(C)=C(C(=O)OC)C1c1ccc(OC)c(OC)c1 (stereo not drawn) [Compound 2] : reported IC50 = ?
Response: > 100 nM

----------
# pIC50 listing for each entry below
# Test system: KCl depolarized rat aorta
# assay.info: Inhibitory effects on rat aorta contractions induced by KCl (in vitro)
# Assay type: cell-based, Wistar rats
# test.parameters: KCl 80 mM depolarized rat aorta; Table 1; read-out: IC × 10^-8
// pIC50: -log10(molar conc.)

Here are 2 compounds together with their reported answers.
Prompt: pIC50 of CCOC(=O)C1=C(C)NC(C)=C(C(=O)OC)C1c1ccccc1OCOC (stereo not drawn) on KCl depolarized rat aorta?
Response: 7.92

Prompt: Observed pIC50 on KCl depolarized rat aorta for CCOC(=O)C1=C(C)NC(C)=C(C(=O)OC)C1c1cccc2c1OCO2 (stereo not drawn) , please.
Response: 8.51

Note: attention shifts to another entry.
Prompt: Param readout = pIC50; param system = KCl depolarized rat aorta; param query = COC(=O)C1=C(C)NC(C)=C(C(=O)OC)C1c1ccccc1[N+](=O)[O-] [Nifedipine, nifedipine, reference compound] ; response: value
Response: 8.15

----------
Below, each entry is listed alongside its reported pIC50.
# Tested on: KCl depolarized rat aorta
# assay.info: Inhibitory effects on rat aorta contractions induced by KCl (in vitro)
# Format: cell-based, Wistar rats
# test.parameters: KCl 80 mM depolarized rat aorta; Table 1; read-out: IC × 10^-8
pIC50: −log10 of the molar value.

Here is how some compounds turned out for pIC50.
Prompt: # get_value(readout='pIC50', item= CCOC(=O)C1=C(C)NC(C)=C(C(=O)OC)C1c1cc(OC)c(O)c(OC)c1 (stereo not drawn) )
Response: < 7.00

Prompt: Tell me the measured pIC50 of `COCCOC(=O)C1=C(C)NC(C)=C(C(=O)OCCOC)C1c1cccc2c1OCO2` , please.
Response: < 7.00

Below: the item to evaluate.
Prompt: If you can, please state the reported pIC50 value of CCOC(=O)C1=C(C)NC(C)=C(C(=O)OC)C1c1cc(OC)c(OC)c(OC)c1 (stereo not drawn) .
Response: < 7.00
